- tested.on: PI3K delta (PI3 Kd) (Homo sapiens)
- Construct: endogenous in cells; host or cells: Jurkat, clone E6-1 (ATCC TIB-152) cell lysate
- Sequence (O00329 whole entry): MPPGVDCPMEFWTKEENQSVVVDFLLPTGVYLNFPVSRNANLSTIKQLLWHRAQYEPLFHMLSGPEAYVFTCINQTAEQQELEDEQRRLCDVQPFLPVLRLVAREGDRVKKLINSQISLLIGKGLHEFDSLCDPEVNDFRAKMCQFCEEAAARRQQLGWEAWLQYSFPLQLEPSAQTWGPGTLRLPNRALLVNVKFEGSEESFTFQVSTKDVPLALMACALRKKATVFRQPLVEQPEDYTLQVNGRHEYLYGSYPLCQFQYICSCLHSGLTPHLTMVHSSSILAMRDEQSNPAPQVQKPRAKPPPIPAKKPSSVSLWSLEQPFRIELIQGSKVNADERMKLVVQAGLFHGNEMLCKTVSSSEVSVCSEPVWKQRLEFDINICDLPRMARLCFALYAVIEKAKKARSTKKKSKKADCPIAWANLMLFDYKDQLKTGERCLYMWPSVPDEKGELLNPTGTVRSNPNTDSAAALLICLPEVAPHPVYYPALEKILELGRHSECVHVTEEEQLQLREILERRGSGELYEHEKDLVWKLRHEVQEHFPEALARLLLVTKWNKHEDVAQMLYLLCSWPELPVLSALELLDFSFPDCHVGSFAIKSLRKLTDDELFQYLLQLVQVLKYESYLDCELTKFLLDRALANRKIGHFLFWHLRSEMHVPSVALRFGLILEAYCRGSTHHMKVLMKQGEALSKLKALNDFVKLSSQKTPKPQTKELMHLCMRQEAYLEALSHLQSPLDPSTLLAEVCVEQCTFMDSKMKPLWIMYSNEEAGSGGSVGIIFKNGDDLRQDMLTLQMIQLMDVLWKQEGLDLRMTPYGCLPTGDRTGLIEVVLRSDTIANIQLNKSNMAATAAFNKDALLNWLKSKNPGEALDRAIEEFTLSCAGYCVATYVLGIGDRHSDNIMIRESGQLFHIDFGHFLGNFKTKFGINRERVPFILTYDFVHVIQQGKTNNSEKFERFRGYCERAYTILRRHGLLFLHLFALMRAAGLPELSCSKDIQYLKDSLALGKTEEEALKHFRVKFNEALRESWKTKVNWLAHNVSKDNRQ
- Sequence (P27986 whole entry partner): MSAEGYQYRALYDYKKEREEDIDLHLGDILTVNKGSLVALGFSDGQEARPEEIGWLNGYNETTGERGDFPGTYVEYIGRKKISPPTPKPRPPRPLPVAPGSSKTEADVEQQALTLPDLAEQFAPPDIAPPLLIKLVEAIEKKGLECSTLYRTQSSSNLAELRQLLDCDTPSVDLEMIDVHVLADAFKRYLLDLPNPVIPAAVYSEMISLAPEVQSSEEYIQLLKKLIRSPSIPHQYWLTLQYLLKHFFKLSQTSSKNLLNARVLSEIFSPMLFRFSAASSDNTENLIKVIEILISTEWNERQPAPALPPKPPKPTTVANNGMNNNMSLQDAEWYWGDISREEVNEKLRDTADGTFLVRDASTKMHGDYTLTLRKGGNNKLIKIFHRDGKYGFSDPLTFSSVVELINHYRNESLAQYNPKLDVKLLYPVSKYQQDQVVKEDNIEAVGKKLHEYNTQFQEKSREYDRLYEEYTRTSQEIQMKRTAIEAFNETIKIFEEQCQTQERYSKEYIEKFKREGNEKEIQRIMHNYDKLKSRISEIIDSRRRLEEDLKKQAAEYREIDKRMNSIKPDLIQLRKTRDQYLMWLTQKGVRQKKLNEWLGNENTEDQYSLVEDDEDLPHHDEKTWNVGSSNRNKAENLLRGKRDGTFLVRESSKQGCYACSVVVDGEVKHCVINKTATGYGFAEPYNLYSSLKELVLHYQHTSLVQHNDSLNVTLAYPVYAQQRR
- test.summary: kinobeads assay, PI3K delta
- Format: binding
- test.conditions: kinobeads assay, Table 6; read-out: Inhibition values (IC50) PI3Kd
pIC50: −log10 of the molar value.
measurement.name: pIC50

CCNC(=O)Nc1ccc(-c2nc3c(c(N4CCOC[C@@H]4C)n2)CN(S(C)(=O)=O)C3)cc1; < 5.00

Provide the documented pIC50 with PI3K delta (PI3 Kd) (Homo sapiens) as the system for "CCOC(=O)N1Cc2nc(-c3ccc(NC(=O)NC4CC4)c(F)c3)nc(N3CCOC[C@@H]3C)c2C1"
< 5.00

What is its pIC50 for PI3K delta (PI3 Kd) (Homo sapiens)? Entry: "C[C@H]1COCCN1c1nc(-c2ccc(NC(=O)NC3CC3)cc2)nc2c1CNC2"
< 5.00

Record "CCNC(=O)Nc1ccc(-c2nc3c(c(N4CCOC[C@@H]4C)n2)CN(C(=O)OCC)C3)cc1F" : what is its pIC50 with PI3K delta (PI3 Kd) (Homo sapiens)?
< 5.00

What pIC50 appears in the records for this compound with PI3K delta (PI3 Kd) (Homo sapiens)? "C[C@H]1COCCN1c1nc(-c2ccc(NC(=O)Nc3ccn(C)n3)cc2)nc2c1CN(C)C2"
< 5.00
